system: lymphocytes; test: Chemotaxis assay, lymphocytes (MIP-3β); type: cell-based; details: Homo sapiens, Lymphocyte; [cpd] 25 μM; MIP-3β 100 nM; 4 h; read-out: Inhibition of Chemotaxis (%) Lymphocytes (MIP3-β) (converted)
compounds and their reported inhibition at 25 µM
All answers are understood in %, so give the number only.

[
  {
    "compound": "COc1ccc(-c2c(-c3nnc(C)o3)[nH]c3cc(OC)c(OC)cc23)cc1 [Example 77]",
    "unit": "%",
    "inhibition at 25 µM": 25.4
  },
  {
    "compound": "COc1cc2[nH]c(C(=O)N3CCOCC3)c(-c3ccccc3)c2cc1OC [Example 47]",
    "unit": "%",
    "inhibition at 25 µM": 66.6
  },
  {
    "compound": "COc1ccc(-c2c(C#N)n(CCN(C)C)c3cc(OC)c(OC)cc23)cc1 [Example 18]",
    "unit": "%",
    "inhibition at 25 µM": 86.7
  },
  {
    "compound": "COc1cc2[nH]c(C(=O)N(C)C)c(-c3ccccc3)c2cc1OC [Example 46]",
    "unit": "%",
    "inhibition at 25 µM": 45
  }
]

Which value of inhibition at 25 µM has been reported for COc1cc2[nH]c(-c3nnc[nH]3)c(-c3ccccc3)c2cc1OC [Example 58] in the records?
82.9

Look up inhibition at 25 µM: CNC(=O)c1[nH]c2cc(OC)c(OC)cc2c1-c1ccccc1 [Example 48]
77.3

Returns the measured inhibition at 25 µM for the input compound. Input: COc1ccc(-c2c3n(c4cc(OC)c(OC)cc24)CC(=O)NC3)cc1 [Example 66]
89.6

Given COc1ccc(-c2c(C#N)n(CCCN(C)C)c3cc(OC)c(OC)cc23)cc1 [Example 55] , state its recorded inhibition at 25 µM.
84.2

Recorded inhibition at 25 µM of CCOC(=O)CCc1[nH]c2cc(OC)c(OC)cc2c1-c1ccc(OC)cc1 [Example 22] , please.
84.6

---

Reported inhibition at 5 µM is given for each of the following compounds.
system: encephalitogenic lymphocytes; assay: Spontaneous adhesion of encephalitogenic T cells on purified ICAM-1; assay type: cell-based, SJL mice; conditions: Mus musculus, Lymphocyte; [cpd] 5 μM; 1 h; read-out: Inhibition of Spontaneous Adhesion in encephalitogenic lymphocytes (% of control/non-treated cells) ICAM-1
Value expressed in %; do not type the unit.

Solved entries (count: 10):
[
  {
    "compoundStructureString": "COc1ccc(-c2c3n(c4cc(OC)c(OC)cc24)CCNC3=O)cc1",
    "inhibition at 5 µM (%)": 69
  },
  {
    "compoundStructureString": "COc1ccc(-c2c(C#N)n(CCN(C)C)c3cc(OC)c(OC)cc23)cc1",
    "inhibition at 5 µM (%)": 28.7
  },
  {
    "compoundStructureString": "COc1cc2[nH]c(C(=O)N(C)C)c(-c3ccccc3)c2cc1OC",
    "inhibition at 5 µM (%)": 15.8
  },
  {
    "compoundStructureString": "CCOC(=O)CCc1[nH]c2cc(OC)c(OC)cc2c1-c1ccc(OC)cc1",
    "inhibition at 5 µM (%)": 39.9
  },
  {
    "compoundStructureString": "COc1ccc(-c2c(C#N)n(CCCO)c3cc(OC)c(OC)cc23)cc1",
    "inhibition at 5 µM (%)": 75
  },
  {
    "compoundStructureString": "COc1ccc(-c2c(-c3nnc(C)o3)[nH]c3cc(OC)c(OC)cc23)cc1",
    "inhibition at 5 µM (%)": 25.9
  },
  {
    "compoundStructureString": "COc1ccc(-c2c(C#N)[nH]c3cc(OC)c(OC)cc23)cc1",
    "inhibition at 5 µM (%)": 72.8
  },
  {
    "compoundStructureString": "COC(=O)c1[nH]c2cc(OC)c(OC)cc2c1-c1ccccc1",
    "inhibition at 5 µM (%)": 78
  },
  {
    "compoundStructureString": "COc1cc2[nH]c(-c3nnc[nH]3)c(-c3ccccc3)c2cc1OC",
    "inhibition at 5 µM (%)": 40.7
  },
  {
    "compoundStructureString": "COC(=O)c1[nH]c2cc(OC)c(OC)cc2c1-c1ccc(OC)cc1",
    "inhibition at 5 µM (%)": 47
  }
]

# inhibition at 5 µM lookup, item `CNC(=O)c1[nH]c2cc(OC)c(OC)cc2c1-c1ccccc1`
37.5

Name the reported inhibition at 5 µM value associated with the compound `COc1ccc(-c2c(C#N)n(CCCN(C)C)c3cc(OC)c(OC)cc23)cc1`
7.6

Look up inhibition at 5 µM for this compound: `COc1cc2[nH]c(C(=O)N3CCOCC3)c(-c3ccccc3)c2cc1OC`
7.1

Endpoint output: inhibition at 5 µM of `COc1ccc(-c2c3n(c4cc(OC)c(OC)cc24)CC(=O)NC3)cc1` . Value?
15

Every entry's value here was drawn from patent US20080226718A1.
